System: HBV
Assay: Anti-HBV activity in the AD-38 cell line using real-time quantitative PCR
Assay type: cell-based
Settings: against HBV, AD-38 cells, 4 days; read-out: EC50
Excerpt: Anti-HBV activity of prodrugs of general formula 1 determination in the AD-38 cell line using a real-time quanitative PCR. a) Cell cultures. HepG2 AD38 cell line, harboring an integrated over-the-length HBV genomic DNA (Lander S, et. al, Antimicrobal Agents and Chemotherapy, 1997, pg. 1715-1720) were provided by Dr. C. Seeger, Fox Chase Cancer Center, Philadelphia, Pa.). […] Eluted DNA samples were stored at −20 C. c) Quantitative real-time PCR (qPCR). […]
Consider the following molecules and their measured pEC50 readings.
Recall that pEC50 is obtained by taking minus log10 of the concentration measured in molar.

Below, 5 molecules whose answers are already recorded.
Smiles String	Measurement Kind	Data Value
C=CCOC(=O)[C@H](C)N[P@](=O)(OC[C@@H]1O[C@H](n2ccc(=O)[nH]c2=O)CS1)Oc1ccccc1	pEC50	6.52
C=C1[C@H](CO[P@@](=O)(N[C@@H](C)C(=O)O[C@@H](C)C(=O)OC(C)C)Oc2ccccc2)[C@@H](O)C[C@@H]1n1cnc2c(=O)[nH]c(N)nc21	pEC50	7.40
COCCOC(=O)[C@H](C)N[P@](=O)(OC[C@@H]1O[C@H](n2ccc(=O)[nH]c2=O)CS1)Oc1ccccc1	pEC50	6.49
CC(C)OC(=O)[C@H](C)OC(=O)[C@H](C)N[P@](=O)(OC[C@@H]1O[C@H](n2ccc(N)nc2=O)CS1)Oc1ccccc1	pEC50	6.10
CC(C)OC(=O)[C@H](C)OC(=O)[C@H](C)N[P@](=O)(OC[C@@H]1O[C@H](n2cc(F)c(N)nc2=O)CS1)Oc1ccccc1	pEC50	7.40

API: the following record is the query input.
Prompt: Which pEC50 value is on record for C=CCOC(=O)[C@H](C)N[P@](=O)(OC[C@@H]1O[C@H](n2cc(F)c(=O)[nH]c2=O)CS1)Oc1ccccc1 ?
Response: 6.43

---

tested on: HepG2 AD38 cell line; assay: Cytotoxicity (viability, CC50) reported with the anti-HBV test; format: cell-based; conditions: concentration not given
Listing of recorded viability, % by entry.
Give your result in % as a bare value.

Smiles String	Tgt	viability, %, %
C=CCOC(=O)[C@H](C)N[P@](=O)(OC[C@@H]1O[C@H](n2cc(F)c(=O)[nH]c2=O)CS1)Oc1ccccc1	HepG2 AD38 cell line	91
CC(C)OC(=O)[C@H](C)OC(=O)[C@H](C)N[P@](=O)(OC[C@@H]1O[C@H](n2cc(F)c(N)nc2=O)CS1)Oc1ccccc1	HepG2 AD38 cell line	94
C=CCOC(=O)[C@H](C)N[P@](=O)(OC[C@@H]1O[C@H](n2ccc(=O)[nH]c2=O)CS1)Oc1ccccc1	HepG2 AD38 cell line	101

Prompt: Fill blank: measured viability, % of the molecule C=CCOC(=O)[C@H](C)N[P@](=O)(OC[C@@H]1O[C@H](n2cc(C)c(=O)[nH]c2=O)[C@H](F)[C@H]1O)Oc1ccccc1 is ____.
Response: 95
